System: Saccharomyces cerevisiae
TEST SUMMARY: protein stability index of tFT-peptide fusion (C-terminal peptide) (PSI (0-1 scale)); higher = more stable (slower turnover)
DETAILS: genetic background: cdc53-1; temperature: 37 C
Lab note: anything with protein stability index at or over 0.5 counts as TRUE; the rest go in FALSE.

Completed entries (count: 10):
{"MONOMER SEQUENCE": "WVFVETVFLVCG", "GROUP LABEL": "FALSE"}
{"MONOMER SEQUENCE": "GFRVPVVVGVRG", "GROUP LABEL": "FALSE"}
{"MONOMER SEQUENCE": "ACALRSLPPRPY", "GROUP LABEL": "TRUE"}
{"MONOMER SEQUENCE": "GSWGGGWRYVGW", "GROUP LABEL": "TRUE"}
{"MONOMER SEQUENCE": "SHWSMQATLQLV", "GROUP LABEL": "TRUE"}
{"MONOMER SEQUENCE": "FVLSLGQLVFIF", "GROUP LABEL": "TRUE"}
{"MONOMER SEQUENCE": "VGVYVWRGVLWA", "GROUP LABEL": "FALSE"}
{"MONOMER SEQUENCE": "LWWTRVILYGYI", "GROUP LABEL": "TRUE"}
{"MONOMER SEQUENCE": "RARFMLGVLLST", "GROUP LABEL": "TRUE"}
{"MONOMER SEQUENCE": "LLCRVSRTRILC", "GROUP LABEL": "TRUE"}

Problem: Entry LGATYSVQLYVS : is its protein stability index no less than 0.5?
Solution: TRUE

Problem: Entry LSFFDYVLLQIA : is its protein stability index no less than 0.5?
Solution: TRUE

Problem: Entry EWLITLRKCGVA : is its protein stability index no less than 0.5?
Solution: TRUE

* * *

Test system: Saccharomyces cerevisiae
TEST SUMMARY: protein stability index of tFT-peptide fusion in wild type (PSI (0-1 scale)); higher = more stable (slower turnover)
DETAILS: genetic background: wild type
MEASUREMENT KIND: protein stability index
Give a plain numeric answer without units written out.

Consider the following illustrative entries.
{"MONOMER SEQUENCE": "ARWRVGLARGAS", "MEASUREMENT KIND": "protein stability index", "RECORDED RESULT": 0.707}
{"MONOMER SEQUENCE": "FSMRWTLRYWVN", "MEASUREMENT KIND": "protein stability index", "RECORDED RESULT": 0.0387}
{"MONOMER SEQUENCE": "RLIGPLPVQFLN", "MEASUREMENT KIND": "protein stability index", "RECORDED RESULT": 0.0842}
{"MONOMER SEQUENCE": "RSLRNLLPLYFR", "MEASUREMENT KIND": "protein stability index", "RECORDED RESULT": 0.465}
{"MONOMER SEQUENCE": "CLVSLPILLFFF", "MEASUREMENT KIND": "protein stability index", "RECORDED RESULT": 0.304}
{"MONOMER SEQUENCE": "RSIQPLPVQFLN", "MEASUREMENT KIND": "protein stability index", "RECORDED RESULT": 0.0915}

Now look at this entry.
Problem: Please look up its protein stability index: RLAQPLPVQFLN
Solution: 0.0466

* * *

Tested on: Saccharomyces cerevisiae
TEST SUMMARY: protein stability index of tFT-peptide fusion (C-terminal peptide) (PSI (0-1 scale)); higher = more stable (slower turnover)
DETAILS: genetic background: wild type; temperature: 30 C
Lab note: anything with protein stability index at or over 0.7 counts as 1; the rest go in 0.

{"MONOMER SEQUENCE": "QPRLPLPLSSPV", "GROUP LABEL": 0}

Problem: Entry PSPLPPPLPPPV : is its protein stability index no less than 0.7?
Solution: 0

Problem: Entry PRIGRPQSLTFH : is its protein stability index no less than 0.7?
Solution: 0

* * *

System: Saccharomyces cerevisiae
TEST SUMMARY: protein stability index of tFT-peptide fusion (C-terminal peptide) (PSI (0-1 scale)); higher = more stable (slower turnover)
DETAILS: genetic background: wild type; temperature: 30 C
The entries below are paired with their reported protein stability index.
Give a plain numeric answer without units written out.

Consider the following illustrative entries.
{"MONOMER SEQUENCE": "EKVNEILRSTEK [GCD14 C-terminal 12 aa]", "RECORDED RESULT": 0.717}
{"MONOMER SEQUENCE": "NPWGGYSQVQSK [COX5A C-terminal 12 aa]", "RECORDED RESULT": 0.688}
{"MONOMER SEQUENCE": "ASIGSDIVNNIF [PIN3 C-terminal 12 aa]", "RECORDED RESULT": 0.711}
{"MONOMER SEQUENCE": "LELQSRIESYLF [CNN1 C-terminal 12 aa]", "RECORDED RESULT": 0.715}
{"MONOMER SEQUENCE": "DEASGTPDEDML [GRR1 C-terminal 12 aa]", "RECORDED RESULT": 0.693}

Problem: Please look up its protein stability index: TAEEQEQSACQC [YPT6 C-terminal 12 aa]
Solution: 0.687

Problem: Please look up its protein stability index: QREEALISLNDW [REV3 C-terminal 12 aa]
Solution: 0.713

Problem: Please look up its protein stability index: LLEDEDRTYNYT [KCH1 C-terminal 12 aa]
Solution: 0.718

Problem: Please look up its protein stability index: LPVSDSRCYYIL [YML031C-A C-terminal 12 aa]
Solution: 0.343

Problem: Please look up its protein stability index: RDLPSVLAKYGF [RRG1 C-terminal 12 aa]
Solution: 0.703

Problem: Please look up its protein stability index: VEGGGVQYTIVS [YDL023C C-terminal 12 aa]
Solution: 0.669

Problem: Please look up its protein stability index: VMKAKRKFNPYT [RRP7 C-terminal 12 aa]
Solution: 0.697

Problem: Please look up its protein stability index: KQVNEDADSDLL [KEL1 C-terminal 12 aa]
Solution: 0.682

Problem: Please look up its protein stability index: ISISHSAVPNIV [YAL069W C-terminal 12 aa]
Solution: 0.729

Problem: Please look up its protein stability index: DKEQQQQQQQQP [ZDS1 C-terminal 12 aa]
Solution: 0.708

Problem: Please look up its protein stability index: LYVTVFNRSDEA [AVT7 C-terminal 12 aa]
Solution: 0.681

Problem: Please look up its protein stability index: VKNVLSKVVPPV [MTC2 C-terminal 12 aa]
Solution: 0.669

Problem: Please look up its protein stability index: PNEFLRDQSTDI [APL5 C-terminal 12 aa]
Solution: 0.66

Problem: Please look up its protein stability index: ENDDHLYIFGRN [TIM18 C-terminal 12 aa]
Solution: 0.731

Problem: Please look up its protein stability index: YIVECIKNVLTK [APL3 C-terminal 12 aa]
Solution: 0.698

* * *

The entries below are paired with their reported protein stability index.
Test system: Saccharomyces cerevisiae
TEST SUMMARY: protein stability index of tFT-peptide fusion (C-terminal peptide) (PSI (0-1 scale)); higher = more stable (slower turnover)
DETAILS: genetic background: wild type; temperature: 30 C
Give a plain numeric answer without units written out.

Consider the following illustrative entries.
{"MONOMER SEQUENCE": "KVVVWRAKTSHS", "protein stability index": 0.692}
{"MONOMER SEQUENCE": "SSWWPVRRTRLG", "protein stability index": 0.587}
{"MONOMER SEQUENCE": "KKKKNNKETKNK", "protein stability index": 0.705}
{"MONOMER SEQUENCE": "PGTGAASGTGGA", "protein stability index": 0.689}
{"MONOMER SEQUENCE": "ACSTALPFSFAS", "protein stability index": 0.689}

Problem: Please look up its protein stability index: TKFSSPPLVRTS
Solution: 0.71

Problem: Please look up its protein stability index: APPCILCLFPAC
Solution: 0.716

Problem: Please look up its protein stability index: PPPPFSPAHLPH
Solution: 0.699

Problem: Please look up its protein stability index: GGVFCGGGALWA
Solution: 0.614

Problem: Please look up its protein stability index: LTGSGSGQGSRN
Solution: 0.688

Problem: Please look up its protein stability index: HLSLPTRAPIRH
Solution: 0.696

Problem: Please look up its protein stability index: SGVALFFFPPLL
Solution: 0.71

Problem: Please look up its protein stability index: RIERIYEIKKNR
Solution: 0.681

Problem: Please look up its protein stability index: STSSPSSSTLLP
Solution: 0.719

Problem: Please look up its protein stability index: FCCVETRRCVRL
Solution: 0.717

Problem: Please look up its protein stability index: GDGWPTRSGGTG
Solution: 0.701

Problem: Please look up its protein stability index: VTGTQGELGSFV
Solution: 0.689

Problem: Please look up its protein stability index: PHPAPPPSPSPS
Solution: 0.715
